Cited source for all entries: paper PMC7470163

Assay: In vivo pharmacokinetic experiment: oral rivaroxaban in rats with or without ticagrelor pre-treatment (plasma, UPLC-MS/MS)
Design: species or system Sprague-Dawley rats
Settings: male, Sprague-Dawley, rat, plasma, po, 10 mg/kg, rivaroxaban 10 mg/kg oral single dose, rats pre-treated with ticagrelor 10 mg/kg/day oral for 14 days, n=5, mean ± SD
quantity_measured: AUC(0-t) (ng·h/mL)
Report the value in ng·h/mL with no unit label.

Query string: Assign AUC(0-t) to the following record: O=C(NC[C@H]1CN(c2ccc(N3CCOCC3=O)cc2)C(=O)O1)c1ccc(Cl)s1
Result string: 3480

====

Assay: In vivo pharmacokinetic experiment: oral rivaroxaban in rats with or without ticagrelor pre-treatment (plasma, UPLC-MS/MS)
Set-up: species or system Sprague-Dawley rats
Details: male, Sprague-Dawley, rat, plasma, po; rivaroxaban 10 mg/kg oral, rats with ticagrelor pre-treatment 10 mg/kg/day for 14 days
quantity_measured: AUC(0-inf) (ng·h/mL)
Return type: number; implicit unit ng·h/mL.

Query string: Specify reported AUC(0-inf) for the molecule shown: O=C(NC[C@H]1CN(c2ccc(N3CCOCC3=O)cc2)C(=O)O1)c1ccc(Cl)s1
Result string: 3580

====

Assay: In vivo pharmacokinetic experiment: oral rivaroxaban in rats with or without ticagrelor pre-treatment (plasma, UPLC-MS/MS)
Parameters: species or system Sprague-Dawley rats
Details: male, Sprague-Dawley, rat, plasma, po, 10 mg/kg, rivaroxaban 10 mg/kg oral, rats, control group (no ticagrelor)
Description: Chromatographic separation was performed using the Acquity UPLC system (Waters Corp., Milford, MA, USA) and ACQUITY UPLC HSS T3 column (2.1 × 100 mm, 1.8 μm) at 40 °C. […] The GraphPad (version 8.0; GraphPad Software Inc., San Diego, CA, USA) was applied to calculate IC50 and plot plasma concentration-time curves. The pharmacokinetic parameters using non-compartmental analysis were calculated by DAS (version 3.2.8; Wenzhou Medical University, China). […]
quantity_measured: AUC(0-inf) (ng·h/mL)
Express it in ng·h/mL; write the number only.

Query string: Respond only with AUC(0-inf) recorded for O=C(NC[C@H]1CN(c2ccc(N3CCOCC3=O)cc2)C(=O)O1)c1ccc(Cl)s1
Result string: 1070

====

Test system: rivaroxaban metabolism in RLMs
Assay: In vitro interaction study: inhibition of rivaroxaban metabolism by ticagrelor in RLMs
Type: in vitro ADME, Sprague-Dawley rat
Conditions: read-out: IC50 (ticagrelor decreased rivaroxaban metabolic clearance)
quantity_measured: pIC50
As a rule, pIC50 stands for the negative log10 of the concentration, concentration in M.

Query string: Check the records and state pIC50 for CCCSc1nc(N[C@@H]2C[C@H]2c2ccc(F)c(F)c2)c2nnn([C@@H]3C[C@H](OCCO)[C@@H](O)[C@H]3O)c2n1
Result string: 4.85
